Source listed as paper PMC8521653.

Kindly state activity at 10 µM for each of the entries shown.
test system: GFP-LC3B-RFP expressing HEK-293 cells; assay: Autophagic flux, GFP signal in GFP-LC3B-RFP expressing HEK-293 cells; type: cell-based; details: Homo sapiens, HEK293; 10 μM, 24 h, GFP signal percentage of DMSO control with SEM, HEK-293 cells; read-out: autophagy at 10 μM (%)

Exercise: Give its activity at 10 µM value. Item: O=C(CCc1ccccc1)N1CCC[C@H]1C(=O)N1CCC[C@H]1c1nnn[nH]1 [Compound 15a]
Key: 96%

Exercise: Give its activity at 10 µM value. Item: O=C(CCCc1ccccc1)NCC(=O)N1CCC[C@H]1c1nnn[nH]1
Key: 90%

Exercise: Give its activity at 10 µM value. Item: O=C(CCCc1ccccc1)N1CCC[C@H]1C(=O)N1CCC[C@H]1c1ccn[nH]1 [Compound 30a]
Key: 89%

Exercise: Give its activity at 10 µM value. Item: CN(CC(=O)N1CCC[C@H]1c1nnn[nH]1)C(=O)CCCc1ccccc1
Key: 84%

Exercise: Give its activity at 10 µM value. Item: C[C@H](NC(=O)CCCc1ccccc1)C(=O)N1CCC[C@H]1c1ncc[nH]1 [Compound 27b]
Key: 106%

Exercise: Give its activity at 10 µM value. Item: O=C(CCc1ccccc1)N1CCC[C@H]1C(=O)N1CCC[C@H]1c1ncc[nH]1 [Compound 26a]
Key: 102%

Exercise: Give its activity at 10 µM value. Item: O=C(CCCc1ccccc1)N1CCC[C@H]1C(=O)N1CCC[C@H]1c1nnc[nH]1 [Compound 20a]
Key: 87%

Exercise: Give its activity at 10 µM value. Item: O=C(CCCc1ccccc1)N1CCC[C@H]1C(=O)N1CCC[C@H]1c1cnn[nH]1 [Compound 25a]
Key: 93%

Exercise: Give its activity at 10 µM value. Item: O=C(CCCCc1ccccc1)N1CCC[C@H]1C(=O)N1CCC[C@H]1c1nnn[nH]1 [Compound 16a]
Key: 98%

Exercise: Give its activity at 10 µM value. Item: CN(CC(=O)N1CCC[C@H]1c1nnn[nH]1)C(=O)CCc1ccccc1 [Compound 15c]
Key: 95%

Exercise: Give its activity at 10 µM value. Item: C[C@H](NC(=O)CCc1ccccc1)C(=O)N1CCC[C@H]1c1nnn[nH]1 [Compound 15b]
Key: 90%

Exercise: Give its activity at 10 µM value. Item: O=C(CCCc1ccccc1)N1CCC[C@H]1C(=O)N1CCC[C@H]1c1nnn[nH]1
Key: 92%

Exercise: Give its activity at 10 µM value. Item: C[C@H](NC(=O)CCCc1ccccc1)C(=O)N1CCC[C@H]1c1nnn[nH]1
Key: 71%

Exercise: Give its activity at 10 µM value. Item: C[C@H](NC(=O)CCCc1ccccc1)C(=O)N1CCC[C@H]1c1nnc[nH]1 [Compound 20b]
Key: 91%

Exercise: Give its activity at 10 µM value. Item: O=C(CCCCc1ccccc1)N1CCC[C@H]1C(=O)N1CCC[C@H]1c1ncc[nH]1 [Compound 28a]
Key: 102%

Exercise: Give its activity at 10 µM value. Item: O=C(CCCc1ccccc1)N1CCC[C@H]1C(=O)N1CCC[C@H]1c1cnc[nH]1 [Compound 29a]
Key: 92%

----------
molecular target: purified recombinant porcine PREP (Sus scrofa); construct: made in house; host or cells: E. coli; assay: Inhibition of the proteolytic activity of PREP, microplate assay with Suc-Gly-Pro-AMC substrate; type: biochemical; details: 1 nM inhibitor, remaining activity
Sequence (P23687 whole entry): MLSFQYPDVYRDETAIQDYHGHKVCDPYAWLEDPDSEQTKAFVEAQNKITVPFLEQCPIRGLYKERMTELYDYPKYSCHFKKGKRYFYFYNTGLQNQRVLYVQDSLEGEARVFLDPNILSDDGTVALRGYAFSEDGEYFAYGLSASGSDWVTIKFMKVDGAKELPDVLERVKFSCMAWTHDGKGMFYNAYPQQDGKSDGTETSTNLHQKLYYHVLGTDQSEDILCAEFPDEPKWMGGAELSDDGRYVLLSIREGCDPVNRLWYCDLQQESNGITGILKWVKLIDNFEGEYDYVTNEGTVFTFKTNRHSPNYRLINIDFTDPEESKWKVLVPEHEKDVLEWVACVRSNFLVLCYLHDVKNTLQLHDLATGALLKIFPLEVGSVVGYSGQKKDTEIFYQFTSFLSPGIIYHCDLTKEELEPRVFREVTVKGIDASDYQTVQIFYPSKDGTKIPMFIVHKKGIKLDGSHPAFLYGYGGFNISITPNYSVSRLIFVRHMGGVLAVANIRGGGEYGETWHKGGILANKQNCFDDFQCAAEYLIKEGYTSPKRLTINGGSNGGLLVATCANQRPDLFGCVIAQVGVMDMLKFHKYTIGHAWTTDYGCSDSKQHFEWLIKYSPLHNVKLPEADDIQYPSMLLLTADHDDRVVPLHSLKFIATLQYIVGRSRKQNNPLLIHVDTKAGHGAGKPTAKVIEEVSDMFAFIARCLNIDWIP
property: PREP activity at 1 nM inhibitor concentration compared to control (%)
Write the number in % without appending the unit.

Exercise: Give its PREP activity at 1 nM inhibitor concentration compared to control value. Item: O=C(CCCc1ccccc1)N1CCC[C@H]1C(=O)N1CCC[C@H]1c1ncc[nH]1 [Compound 27a]
Key: 25

Exercise: Give its PREP activity at 1 nM inhibitor concentration compared to control value. Item: O=C(CCc1ccccc1)N1CCC[C@H]1C(=O)N1CCC[C@H]1c1ncc[nH]1 [Compound 26a]
Key: 41

Exercise: Give its PREP activity at 1 nM inhibitor concentration compared to control value. Item: O=C(c1ncc[nH]1)[C@@H]1CCCN1C(=O)[C@@H]1CCCN1C(=O)CCCc1ccccc1 [Compound 2a, reference compound]
Key: 43

Exercise: Give its PREP activity at 1 nM inhibitor concentration compared to control value. Item: O=C(CCCCc1ccccc1)N1CCC[C@H]1C(=O)N1CCC[C@H]1c1ncc[nH]1 [Compound 28a]
Key: 20
